# ASSAYED_SYSTEM: Soluble guanylate cyclase alpha1/beta1 complex (Homo sapiens) (UniProt Q02153+Q02108)
# ASSAY_NOTES: Activation of full length human sGC alpha1/beta1 subunit containing heme in ferric state expressed in Sf9 insect cells using […] incubated for 15 mins by [32P]GTP assay
Activity calls are given as the source filed them. No cut-off for these calls is given here.
PROPERTY_MEASURED: Activity

COMPOUND: CCCCCCNC(=O)C(C)(C)CCCOc1cc(C)ccc1C
PROPERTY_MEASURED: Activity
RESULT: inactive

COMPOUND: Cc1ccc(C)c(OCCCC(C)(C)C(=O)NCCCCCCNC(=O)C(C)(C)CCCOc2cc(C)ccc2C)c1
PROPERTY_MEASURED: Activity
RESULT: inactive

COMPOUND: Cc1ccccc1OCCCC(C)(C)C(=O)O
PROPERTY_MEASURED: Activity
RESULT: inactive

COMPOUND: CCC(CCCOc1cc(C)ccc1C)C(=O)O (stereo not given)
PROPERTY_MEASURED: Activity
RESULT: inactive

COMPOUND: Cc1ccc(C)c(OCCCC(C)(C)C(=O)NCCNC(=O)C(C)(C)CCCOc2cc(C)ccc2C)c1
PROPERTY_MEASURED: Activity
RESULT: inactive

Could you now look at the following compound, please?
Report Activity for `Cc1ccc(C)c(OCCCC(C)(C)C(=O)NCCCCNC(=O)C(C)(C)CCCOc2cc(C)ccc2C)c1` inactive
